Hey, just so you know, these numbers are from the supplement of paper PMC11061612.

Test system: HCC-44 (Lung Adenocarcinoma);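 also: after 72 h of two-drug dosing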
Assay: Bliss excess, mean over the matrix (fraction); higher = more synergy
Give Bliss excess for every item shown.
Answers are plain numbers.

Below, each entry is followed by its recorded Bliss excess result.
{"compound": "Cc1cc2ncnn2cc1Nc1ncc2c(n1)n(C1CCOCC1)c(=O)n2C [AZD7648] + COc1cc([C@@H]2c3cc4c(cc3[C@@H](O[C@@H]3O[C@@H]5CO[C@@H](C)O[C@H]5[C@H](O)[C@H]3O)[C@H]3COC(=O)[C@H]23)OCO4)cc(OC)c1O [Etoposide] (first compound max 10 µM, 7x7, partner max 10 µM)", "measured_target": "HCC-44 (Lung Adenocarcinoma)", "assay_endpoint": "Bliss excess", "assay_value": 0.0009}
{"compound": "Cn1cnc2c(F)c(Nc3ccc(Br)cc3Cl)c(C(=O)NOCCO)cc21 [Selumetinib] + CCN(CCO)CCCOc1ccc2c(Nc3cc(CC(=O)Nc4cccc(F)c4)[nH]n3)ncnc2c1 [AZD2811] (first compound max 10 µM, 7x7, partner max 1 µM)", "measured_target": "HCC-44 (Lung Adenocarcinoma)", "assay_endpoint": "Bliss excess", "assay_value": 0.0067}
{"compound": "N#Cc1cnc(Nc2cc(NC[C@H]3CNCCO3)c(C(F)(F)F)cn2)cn1 [SRA737] + Nc1ccn([C@@H]2O[C@H](CO)[C@@H](O)C2(F)F)c(=O)n1 [Gemcitabine] (first compound max 10 µM, 7x7, partner max 0.3 µM)", "measured_target": "HCC-44 (Lung Adenocarcinoma)", "assay_endpoint": "Bliss excess", "assay_value": 0.149}

Query :: Name the recorded Bliss excess of the item NC1(C(=O)N[C@@H](CCO)c2ccc(Cl)cc2)CCN(c2ncnc3[nH]ccc23)CC1 [Capivasertib] + CC(=O)c1c(C)c2cnc(Nc3ccc(N4CCNCC4)cn3)nc2n(C2CCCC2)c1=O [Palbociclib] (first compound max 10 µM, 7x7, partner max 10 µM) in your answer.
Result :: -0.0161
